Molecular target: Neu5Ac(a2-3)Gal
Experiment: glycan array binding signal (z-score within array); higher = stronger binding
Details: glycan notation: IUPAC condensed, linker removed
This is one part of a sample in which the strongest signals are shown more often than they occur.
# glycan array binding signal (z-score) values compiled below

| binder | glycan array binding signal (z-score) |
| --- | --- |
| XTP3-B-MRH1 (Homo sapiens), Q96DZ1 (protein) LLEPLFKQSSCSYRIESYWTYEVCHGKHIRQYHEEKETGQKINIHEYYLGNMLAKNLLFEKEREAEEKEKSNEIPTKNIEGQMTPYYPVGMGNGTPCSLKQNRPRSSTVMYICHPESKHEILSVAEVTTCEYEVVILTPLLCSHPKYRFRA | -0.797 |
| Clec2 (Mus musculus), Q9JL99 (protein) MQDEDGYITLNIKPRKQALSSAEPASSWWRVMALVLLISSMGLVVGLVALGIMSVTQQKYLLAEKENLSATLQQLAKKFCQELIRQSEIKTKSTFEHKCSPCATKWRYHGDSCYGFFRRNLTWEESKQYCTEQNATLVKTASQSTLDYIAERITSVRWIGLSRQNSKKDWMWEDSSVLRKNGINLSGNTEENMNCAYLHNGKIHPASCKERHYLICERNAGMTRVDQLL | 0.604 |

src = the supplement of paper PMC8728848
